System: 186277-243-T-J2-PDC complex spheroid growth;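 note: luminescent signal used as a stand-in for viable cell amount; spheroids exposed to compounds for seven days before the viability read; 100% = DMSO vehicle control wells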
assay info: Anticancer human tumor 186277-243-T-J2-PDC patient-derived colon adenocarcinoma cell line growth inhibition [AhR]
condition: second compound 0.1 µM; first compound 10 µM; hits give low values
Overview of reported viability, T/C across a group of compounds:
Kindly answer with a numeric value in %, unit omitted.

>>> measured_result("COc1cc(C2c3cc4c(cc3C(OC3OC5COC(C)OC5C(O)C3O)C3COC(=O)C23)OCO4)cc(OC)c1O (configuration not stated) + Cc1ccccc1N=Nc1ccc(NC(=O)c2ccnn2C)c(C)c1")
46.5
>>> measured_result("O=C(C=Cc1cccc(S(=O)(=O)Nc2ccccc2)c1)NO + Cc1ccccc1N=Nc1ccc(NC(=O)c2ccnn2C)c(C)c1")
4.8
>>> measured_result("NS(=O)(=O)OCC1CC(n2ccc3c(NC4CCc5ccccc54)ncnc32)CC1O (configuration not stated) + Cc1cncc(-c2nc(NCCc3c[nH]c4ccccc34)c3ncn(C(C)C)c3n2)c1")
3.87
>>> measured_result("COc1cccc2c1C(=O)c1c(O)c3c(c(O)c1C2=O)CC(O)(C(=O)CO)CC3OC1CC(N)C(O)C(C)O1 (configuration not stated) + Cc1ccccc1N=Nc1ccc(NC(=O)c2ccnn2C)c(C)c1")
0.61

Which viability, T/C is reported for this compound? Nc1ccn(C2OC(CO)C(O)C2(F)F)c(=O)n1 (configuration not stated) + Cc1cncc(-c2nc(NCCc3c[nH]c4ccccc34)c3ncn(C(C)C)c3n2)c1 8.43

Which viability, T/C is reported for this compound? COc1ccc([C@@H](O)c2cc(-c3ncnc4cc(N5CCOCC5)ccc34)c(F)cc2Cl)nn1 + Cc1cncc(-c2nc(NCCc3c[nH]c4ccccc34)c3ncn(C(C)C)c3n2)c1 66.2

Which viability, T/C is reported for this compound? COc1cc(Nc2ncc3c(n2)-c2ccc(Cl)cc2C(c2c(F)cccc2OC)=NC3)ccc1C(=O)O + CC(CO)NC(=O)c1cc(-c2ccc(Cl)cc2)nn(-c2cnn(C)c2)c1=O 27.9

Which viability, T/C is reported for this compound? COc1ccc([C@@H](O)c2cc(-c3ncnc4cc(N5CCOCC5)ccc34)c(F)cc2Cl)nn1 + CC(CO)NC(=O)c1cc(-c2ccc(Cl)cc2)nn(-c2cnn(C)c2)c1=O 20.7

Which viability, T/C is reported for this compound? CC(C)c1c(-c2ccccc2)nc2c(C#N)c[nH]n2c1=O + Cc1ccccc1N=Nc1ccc(NC(=O)c2ccnn2C)c(C)c1 97.5

Which viability, T/C is reported for this compound? Nc1ccn(C2OC(CO)C(O)C2(F)F)c(=O)n1 (configuration not stated) + CC(CO)NC(=O)c1cc(-c2ccc(Cl)cc2)nn(-c2cnn(C)c2)c1=O 4.38

Which viability, T/C is reported for this compound? COc1cccc2c1C(=O)c1c(O)c3c(c(O)c1C2=O)CC(O)(C(=O)CO)CC3OC1CC(N)C(O)C(C)O1 (configuration not stated) + CC(CO)NC(=O)c1cc(-c2ccc(Cl)cc2)nn(-c2cnn(C)c2)c1=O 0.32

Which viability, T/C is reported for this compound? Nc1ccccc1NC(=O)c1ccc(CNC(=O)OCc2cccnc2)cc1 + Cc1cncc(-c2nc(NCCc3c[nH]c4ccccc34)c3ncn(C(C)C)c3n2)c1 8.44
